test: Half life in rat liver microsomes; format: ADME, Microsome
parameter: half-life (h)
Express the result in h but write the number alone.

Guide cases for half-life, answers given:
{"compound": "CS(=O)(=O)c1ccc(C(CCNC(=O)c2ccc(C#N)nc2)c2ccc(F)cc2)cc1 (centres undefined)", "half-life (h)": 2.5}
{"compound": "O=C(NCc1ccccc1OC(F)(F)F)N1CCC(c2ccncc2)C1 (centres undefined)", "half-life (h)": 0.7}
{"compound": "CS(=O)(=O)c1ccc(CNC(=O)c2ccc(OCC(F)(F)F)nc2)c(Cl)c1", "half-life (h)": 1.25}

Now, please, on to the next compound.
[Q] If you can, please state the reported half-life value of O=C(NC1CCOCC1)C1CCN(C(=O)NCc2ccccc2)CC1 .
[A] 1.73

---

experiment: Terminal half life in human; format: ADME, organism-based; settings: in vivo, read-out: beta t1/2 (converted)
parameter: half-life (min)
Express the result in min but write the number alone.

[Q] If you can, please state the reported half-life value of CC(=O)N1CCC(NC(=O)NC23CC4CC(CC(C4)C2)C3)CC1 [AR9281] .
[A] 180

Value source: ChEMBL document CHEMBL2069173
